system: KM12 colon; assay: NCI tumour cell line growth inhibition, 48 h
Record form. Attribute: TGI. Fill in for each entry.

stdin: I'd like to know its TGI. The molecule in question is Cc1cc(C)c(C2CC(O)C(CO)O2)cc1C (centres undefined)
stdout: > 100 µM

stdin: Check "Cc1ccc2nc(-n3c(/C=C/c4ccccc4O)nc4ccccc4c3=O)sc2c1" too.
stdout: > 100 µM

stdin: Check CCOC(=O)C(Cc1ccc([N+](=O)[O-])cc1)NC(=O)CC1c2ccccc2-c2ccccc21 (centres undefined) too.
stdout: > 100 µM

stdin: Check "O=C(c1ccc(Cl)c(Cl)c1)N(Cc1cccnc1)C(=S)N(Cc1cccnc1)C(=O)c1ccc(Cl)c(Cl)c1" too.
stdout: > 100 µM

stdin: Check "COC(=O)c1nn(-c2ccccc2)c(=O)cc1N=[N+]=[N-]" too.
stdout: > 100 µM

stdin: Check "CCCc1cc2c(cc1O)CC[C@@H]1[C@@H]2CC[C@]2(C)[C@@H](O)CC[C@@H]12" too.
stdout: 22.6 µM

stdin: Check "O=C1CC[C@@]2(O)[C@H]3Cc4ccc(-c5cccc(O)c5)c5c4[C@@]2(CCN3CC2CC2)[C@H]1O5" too.
stdout: 57.5 µM

stdin: Check "O=C(O)c1c(-c2ccccc2)c(=O)[nH]c2ccccc12" too.
stdout: > 100 µM

stdin: Check "COc1ccc2c(-c3ccc(OCCN(C)C)cc3)c(Oc3ccccc3)c(=O)oc2c1" too.
stdout: > 39.4 µM

----------
Record form. Attribute: TGI. Fill in for each entry.
test system: MDA-MB-435; test: NCI tumour cell line growth inhibition, 48 h
Number in µM, nothing else.

stdin: I'd like to know its TGI. The compound in question is "Cc1cc(C(=O)NC(C)(C)C)cc(C#Cc2ccc3c4c(oc3c2)C(C)(C)c2cc(NS(C)(=O)=O)ccc2C4=O)n1"
stdout: 21.1

stdin: Check "O=C(N=Nc1ccc(Br)cc1)NNc1ccc(Br)cc1" too.
stdout: 46.1

stdin: Check "COc1ccc2c(-c3ccc(OCCN(C)C)cc3)c(Oc3ccccc3)c(=O)oc2c1" too.
stdout: 7.12

stdin: Check "COc1ccc2nccc(NCCCN3CCN(CCCNc4ccnc5ccc(OC)cc45)CC3)c2c1" too.
stdout: 1.65

----------
test system: TK-10 renal; assay: NCI tumour cell line growth inhibition, 48 h
Record form. Attribute: TGI. Fill in for each entry.

stdin: I'd like to know its TGI. The molecule in question is "Cc1c(C(=O)O)nc(/C=C/C(=O)O)[nH]c1=O"
stdout: > 100 µM

stdin: Check "O=c1ssc2ncccc12" too.
stdout: > 100 µM

stdin: Check "[Co+2].[O-]c1ccccc1C=NCc1ccccc1.[O-]c1ccccc1C=NCc1ccccc1" too.
stdout: > 100 µM

stdin: Check "COc1ccc2nccc(NCCCN3CCN(CCCNc4ccnc5ccc(OC)cc45)CC3)c2c1" too.
stdout: 22 µM

stdin: Check "O=C1C(=C/C=C2/SC(c3ccccc3)(c3ccccc3)c3ccccc32)C(=O)c2ccccc21" too.
stdout: > 100 µM

stdin: Check "CC(C)OC(=O)c1ccc(CCc2cc(O)c(Br)cc2O)cc1" too.
stdout: 30.6 µM

----------
test system: IGROV1 ovarian; experiment: NCI tumour cell line growth inhibition, 48 h; in the data active means GI50 below about 0.43 µM; inactive means the rest
Lab note: assign the record to one of active, inactive

stdin: Dear all, I need the recorded test outcome for "Nc1cc(N)c2nc(-c3ccccc3)c(Sc3ccc(Cl)c(Cl)c3)nc2c1" , thank you.
stdout: inactive

stdin: Check COc1ccc2c(c1)OCC1c3cc(O)ccc3OC21 (stereo unspecified) too.
stdout: inactive

stdin: Check "Cc1ccc(S(=O)(=O)NC2=NCCN2C(=S)SN2CCn3c2nsc3=S)cc1" too.
stdout: inactive

stdin: Check "O=C1c2ccccc2C(=O)c2c1ccc(C(Br)Br)c2Cl" too.
stdout: inactive

stdin: Check "CN1CCN(c2ccc(N3Cc4ccccc4OC4=C3C(=O)c3c(O)ccc(O)c3C4=O)cn2)CC1" too.
stdout: active

stdin: Check CSCCC(NC(=O)CNC(=O)C(CC(=O)O)NC(=O)C(NC(=O)C(NC(=O)C(NC(=O)CNC(=O)C(CCC(N)=O)NC(=O)C(CCSC)NC(=O)C(CC(=O)O)NC(=O)C(C)NC(=O)C(C)NC(=O)C(NC(=O)C(CO)NC(=O)C(N)CC(C)C)C(C)O)C(C)C)C(C)C)C(C)O)C(=O)NC(C)C(=O)NC(CO)C(=O)NCC(=O)NC(CC(C)C)C(=O)NC(CC(=O)O)C(=O)NC(CCCCN)C(=O)NC(CC(=O)O)C(=O)NC(Cc1ccc(O)cc1)C(=O)NC(CC(C)C)C(=O)NC(CCCCN)C(=O)N1CCCC1C(=O)NC(CC(=O)O)C(=O)NC(CC(=O)O)C(=O)O (stereo unspecified) too.
stdout: inactive

----------
system: EKVX NSCLC; test: NCI tumour cell line growth inhibition, 48 h
Recorded endpoint: TGI (µM)
Number in µM, nothing else.

stdin: I'd like to know its TGI. The molecule in question is C=C(CN(C)C)C(=O)c1ccc(OC2OC(COC(C)=O)C(OC(C)=O)C(OC(C)=O)C2OC(C)=O)cc1 (stereo unspecified)
stdout: 54.2

stdin: Check "NCCCCCCn1c2c(c3ccccc3c1=O)C(=O)c1ccccc1-2" too.
stdout: 28.8

stdin: Check "COc1ccc2nc(C)cc(NCCCCCCCCCNc3cc(C)nc4ccc(OC)cc34)c2c1" too.
stdout: 7.36

----------
tested on: CCRF-CEM leukemia; experiment: NCI tumour cell line growth inhibition, 48 h
Recorded endpoint: TGI (µM)
Number in µM, nothing else.

stdin: I'd like to know its TGI. The compound in question is "O=C(CCN1CCCCC1)Nc1ccc2sc3ccccc3c(=O)c2n1"
stdout: 54

stdin: Check "C/C=C(\C)C(=O)O[C@H]1C=CC(=O)O[C@H]1CC[C@H](O)[C@H](C)O" too.
stdout: 0.335

stdin: Check "COc1ccc(/C(Cl)=C(\C=O)c2ccc(Cl)c(Cl)c2)cc1" too.
stdout: 30.2

stdin: Check "S=C(NC/C(Br)=C/Br)Nc1cccc2ccccc12" too.
stdout: 66.2

----------
tested on: CAKI-1 renal; experiment: NCI tumour cell line growth inhibition, 48 h
Record form. Attribute: TGI. Fill in for each entry.

stdin: I'd like to know its TGI. The molecule in question is "Cc1coc2c1[C@@H](O)[C@@]1(C)[C@H](CCC[C@@H]1C)C2"
stdout: > 100 µM

stdin: Check CCCCCc1cc2cc3c(c(O)c2c(=O)[nH]1)C1(CC3)C(O)=c2c(=O)c3c(=O)cc(OC)c(=O)c=3c(=O)c2=C1O (centres undefined) too.
stdout: 1.8 µM

stdin: Check "CC1=c2c(oc3cc(O)c(Nc4c(C)cc(O)cc4O)c(C)c23)=CC(=O)C1=Nc1c(C)cc(O)cc1O" too.
stdout: > 100 µM

stdin: Check "CCOc1ccc2nc(S/C(=C/C=C(C#N)C#N)c3ccc(Cl)cc3)sc2c1" too.
stdout: 15.3 µM

stdin: Check "CCCN1C(=O)/C(=C/c2cccc(O)c2)SC1=Nc1ccccc1" too.
stdout: 38 µM

stdin: Check "CC(C)=CCC/C(C)=C\CC/C(C)=C/CO" too.
stdout: > 10 µM

stdin: Check "O=C(/C=C(\N=P(c1ccccc1)(c1ccccc1)c1ccccc1)C(F)(F)C(F)(F)C(F)(F)C(F)(F)C(F)(F)C(F)(F)C(F)(F)F)c1ccccc1" too.
stdout: > 100 µM

stdin: Check "COc1cc(/C=C/c2ccc(/C=C/c3cc(OC)c(OC)c(OC)c3)cc2)cc(OC)c1OC" too.
stdout: 72.3 µM

stdin: Check "CC1=C(C(=O)NNC(=O)c2ccccc2)CC(C(=O)NNC(=O)c2ccccc2)=C(C)N1" too.
stdout: > 100 µM

stdin: Check Cc1ccc(NC(=O)C(=O)C(C2C(C)CC(=O)C2CC(=O)O)[N+](=O)[O-])cc1 (centres undefined) too.
stdout: > 100 µM

stdin: Check CC(=O)N1N=C(c2cc(C)ccc2O)CC1c1cccc(Cl)c1 (centres undefined) too.
stdout: > 100 µM

stdin: Check "S=c1[nH]n2c(Cc3ccccc3)nnc2s1" too.
stdout: > 100 µM

stdin: Check "Cc1ccc(S(=O)(=O)NC2=NCCN2C(=S)SN2CCn3c2nsc3=S)cc1" too.
stdout: 14.6 µM

stdin: Check "COc1ccc(C(=O)N/N=C2\C(=O)c3c(C)cc(C)cc3CC2(C)C)cc1" too.
stdout: > 100 µM

stdin: Check CCOc1ccc(N=NC2C(=O)N(C(=O)CC(=O)Nc3ccc(C)cc3)N=C2C)cc1 (centres undefined) too.
stdout: > 100 µM

stdin: Check "CCCCCC(=O)N[C@H]1CCc2cc(OC)c(OC)c(OC)c2-c2ccc(SC)c(=O)cc21" too.
stdout: > 100 µM

stdin: Check "N#Cc1c(-c2ccc(Cl)cc2)cc(-c2ccc(Nc3ccnc4cc(C(F)(F)F)ccc34)cc2)nc1N" too.
stdout: > 100 µM

stdin: Check "COC(=O)[C@@]12CCCC(=O)[C@@H]1[C@H]1CCC[C@H]12" too.
stdout: > 100 µM

stdin: Check "c1ccc2c(c1)c(N1CCCCC1)cc1nc3c(cc(N4CCCCC4)c4ccccc43)nc12" too.
stdout: > 100 µM
